Tested on: Hela
Experiment: Cell inhibition assay (SRB cell viability), Hela
Type: cell-based
Conditions: Homo sapiens, HeLa, 72 h, Hela cells
Experimental: The corresponding cancer cell lines (Hela, U937 and HUT) growing in log phase were harvested and seeded at 1000 cells/well (200 ul final volume) into 96-well tissue culture plates. […] Data were expressed as a percentage inhibition of the control, measured in the absence of inhibitor, as follows: — % inhibition=100−((S^i/S^o)×100) where S^i is the signal in the presence of inhibitor and S^o is the signal in the presence of DMSO. […]
pIC50: −log10 of the molar value.
Assign pIC50 to each entry below.

Solved entries:
| molecule | measured-on | pIC50 |
| --- | --- | --- |
| N[C@H](C(=O)OC1CCCC1)c1ccc(Oc2ccc(CNCc3ccc4cc(C(=O)NO)sc4c3)cc2)cc1 | Hela | 5.48 to 6.48 |
| CC(=O)N[C@@H](Cc1ccc(NC(=O)CCCCCCC(=O)NO)cc1)C(=O)O | Hela | < 5.48 |
| N[C@@H](CC1CCC(Oc2ccc(CNCc3ccc4cc(C(=O)NO)sc4c3)cc2)CC1)C(=O)OC1CCCC1 (some centres unmarked) | Hela | 5.48 to 6.48 |
| N[C@H](CCOc1ccc(CNCc2ccc3cc(C(=O)NO)sc3c2)cc1)C(=O)OC1CCCC1 | Hela | > 6.48 |

Please supply pIC50 for each of the following items, keeping them in order.
1. COc1cc(CNCc2ccc3cc(C(=O)NO)sc3c2)ccc1OCCC[C@H](N)C(=O)OC1CCCC1
2. CC(=O)N[C@@H](CCCOc1ccc(CNCc2ccc3cc(C(=O)NO)sc3c2)cc1)C(=O)OC1CCCC1
3. N[C@@H](CCOc1cccc(NC(=O)CCCCCCC(=O)NO)c1)C(=O)O
4. CC(=O)N[C@@H](Cc1ccc(NC(=O)CCCCCCC(=O)NO)cc1)C(=O)OC1CCCC1
5. CC(=O)N[C@H](Cc1ccc(NC(=O)CCCCCCC(=O)NO)cc1)C(=O)OC1CCCC1
6. O=C(NO)c1cc2ccc(CNCc3ccc(OCCC[C@H](NC4CCCCC4)C(=O)OC4CCCC4)cc3)cc2s1

1: 5.48 to 6.48; 2: 5.48 to 6.48; 3: < 5.48; 4: < 5.48; 5: < 5.48; 6: 5.48 to 6.48

Please supply pIC50 for each of the following items, keeping them in order.
1. N[C@@H](CCOc1cccc(NC(=O)CCCCCCC(=O)NO)c1)C(=O)OC1CCCC1
2. NC(C(=O)OC1CCCC1)C1CCC(Oc2ccc(CNCc3ccc4cc(C(=O)NO)sc4c3)cc2)CC1 (centres unmarked)

1: 5.48 to 6.48; 2: 5.48 to 6.48

Please supply pIC50 for each of the following items, keeping them in order.
1. N[C@H](CCCOc1ccc(CNCc2ccc3cc(C(=O)NO)sc3c2)cc1)C(=O)OC1CCCC1
2. N[C@@H](Cc1ccc(Oc2ccc(CNCc3ccc4cc(C(=O)NO)sc4c3)cc2)cc1)C(=O)OC1CCCC1

1. 5.48 to 6.48
2. 5.48 to 6.48

---

tested on: U937; test: Cell inhibition assay (SRB cell viability), U937; format: cell-based; conditions: Homo sapiens, U-937, 72 h, U937 cells
pIC50: −log10 of the molar value.
measure-name: pIC50

Solved entries:
| compound | measured-on | pIC50 |
| --- | --- | --- |
| CC(=O)N[C@H](Cc1ccc(NC(=O)CCCCCCC(=O)NO)cc1)C(=O)O | U937 | < 5.48 |
| N[C@@H](CC1CCC(Oc2ccc(CNCc3ccc4cc(C(=O)NO)sc4c3)cc2)CC1)C(=O)OC1CCCC1 (stereo partly shown) | U937 | > 6.48 |
| COc1cc(CNCc2ccc3cc(C(=O)NO)sc3c2)ccc1OCCC[C@H](N)C(=O)OC1CCCC1 | U937 | 5.48 to 6.48 |
| CC(=O)N[C@H](Cc1ccc(NC(=O)CCCCCCC(=O)NO)cc1)C(=O)OC1CCCC1 | U937 | < 5.48 |

Please supply pIC50 for each of the following items, keeping them in order.
1. CC(=O)N[C@@H](Cc1ccc(NC(=O)CCCCCCC(=O)NO)cc1)C(=O)O
2. N[C@H](CCOc1ccc(CNCc2ccc3cc(C(=O)NO)sc3c2)cc1)C(=O)OC1CCCC1
3. N[C@@H](CCOc1ccc(CNCc2ccc3cc(C(=O)NO)sc3c2)cc1)C(=O)OC1CCCC1
4. N[C@@H](CCOc1cccc(NC(=O)CCCCCCC(=O)NO)c1)C(=O)OC1CCCC1
5. N[C@@H](CCCOc1ccc(CNCc2ccc3cc(C(=O)NO)sc3c2)cc1)C(=O)OC1CCCC1
6. N[C@H](CCCOc1ccc(CNCc2ccc3cc(C(=O)NO)sc3c2)cc1)C(=O)OC1CCCC1

["< 5.48", "> 6.48", "> 6.48", "5.48 to 6.48", "> 6.48", "> 6.48"]

Data provenance: patent US7973181B2
